The measured values listed here are drawn from patent US6608086B2.

Measured melting point values are reported for all entries that follow.
result-type: melting point

compound: CCC1=C(C(=O)NC)C(c2ccc([N+](=O)[O-])cc2)C(C(=O)NCCCN2CCC(c3ccccc3)(c3ccccc3)CC2)=C(CC)N1 (stereo not shown)
result-type: melting point
measured: 123 to 126 °C

compound: CCNC(=O)C1=C(CC)NC(CC)=C(C(=O)NCCCN2CCC(C(=O)OCC)(c3ccccc3)CC2)C1c1ccc([N+](=O)[O-])cc1 (stereo not shown)
result-type: melting point
measured: 103 to 104 °C

compound: CCC1=C(C(=O)OCCC#N)C(c2ccc([N+](=O)[O-])cc2)C(C(=O)NCCCN2CCC(c3ccccc3)(c3ccccc3)CC2)=C(COC)N1 (stereo not shown) (hydrate or solvate)
result-type: melting point
measured: 120 to 125 °C

compound: CC1=C(C(N)=O)C(c2ccc([N+](=O)[O-])cc2)C(C(=O)NCCCN2CCC(C(=O)O)(c3ccccc3)CC2)=C(C)N1 (stereo not shown)
result-type: melting point
measured: 208 to 210 °C

compound: CCOC(=O)C1(c2ccccc2)CCN(CCCNC(=O)C2=C(COCCN)NC(CC)=C(C(=O)OC)C2c2ccc([N+](=O)[O-])cc2)CC1 (stereo not shown)
result-type: melting point
measured: 45 to 47 °C

compound: COC(=O)C1(c2ccccc2)CCN(CCCNC(=O)C2=C(C)NC(C)=C(C(C)=O)C2c2ccc([N+](=O)[O-])cc2)CC1 (stereo not shown)
result-type: melting point
measured: 94 to 95 °C

compound: CCC1=C(C(=O)NC)C(c2ccc([N+](=O)[O-])cc2)C(C(=O)NCCCN2CCC(c3ccccc3)(c3ccccc3)CC2)=C(COCCN)N1 (stereo not shown)
result-type: melting point
measured: 115 °C (dec.)

compound: COC(=O)C1=C(C)NC(C)=C(C(=O)NCCCN2CCC(c3ccccc3)(c3ccccc3)CC2)C1c1ccc(C(=O)OC)cc1 (stereo not shown)
result-type: melting point
measured: 175.5 to 176 °C

compound: CCOC(=O)C1(c2ccccc2)CCN(CCCNC(=O)C2=C(CC)NC(CC)=C(C(=O)NC)C2c2ccc([N+](=O)[O-])cc2)CC1 (stereo not shown)
result-type: melting point
measured: 95 to 97 °C

compound: COC(=O)C1=C(C)NC(C)=C(C(=O)NCCCN2CCC(c3ccccc3)CC2)C1c1ccc2c(c1)OCO2 (stereo not shown)
result-type: melting point
measured: 161 to 165 °C

compound: CNC(=O)C1=C(C)NC(C)=C(C(=O)NCCCN2CCC(O)(c3ccccc3)CC2)C1c1ccc([N+](=O)[O-])cc1 (stereo not shown)
result-type: melting point
measured: 87 to 91 °C

compound: COC(=O)C1=C(C)NC(C)=C(C(=O)NCCCN2CCC(c3ccccc3)(c3ccccc3)CC2)C1c1ccc(Br)cc1 (stereo not shown)
result-type: melting point
measured: 244 to 247 °C (dec.)

compound: CC1=C(C(=O)NCCCN2CCC(c3ccccc3)CC2)C(c2ccc([N+](=O)[O-])cc2)c2c([nH]c(=O)[nH]c2=O)N1 (stereo not shown)
result-type: melting point
measured: 202 to 205 °C
